- Tested on: nude mice, HT29 intrarenal xenograft, tumor weight T/C
- experimental.details: NCI In Vivo Anticancer Drug Screen. Data for tumor model HT29;CX-1 Human Adenocarcinoma (MER+) (intrarenal inoculation) in NU/NU Swiss (nude) mice
- test.context: endpoint: mean tumor weight change; dose: 400.0 mg/kg/injection; schedule: Q04DX004 (sc); vehicle: suspension in saline; higher = larger tumour
Inconclusive results are not listed.

compound	experimental.system	T/C
CC1=CC(=NN=c2cc(C)n([O-])c(C)c2)C=C(C)[N+]1=O	nude mice, HT29 intrarenal xenograft, tumor weight T/C	40 % of control
COc1cc2cc3cc4cc(OC)c(OC)cc4c(C)[n+]3cc2cc1OC (tested in a mixture with another compound)	nude mice, HT29 intrarenal xenograft, tumor weight T/C	80 % of control
O=CC(S)CO (stereo not drawn)	nude mice, HT29 intrarenal xenograft, tumor weight T/C	101 % of control
CC(C)=CCNc1ncnc2c1ncn2C1OC(CO)C(O)C1O (stereo not drawn)	nude mice, HT29 intrarenal xenograft, tumor weight T/C	62 % of control
Cc1cn(C2CC(F)C(CO)O2)c(=O)[nH]c1=O (stereo not drawn)	nude mice, HT29 intrarenal xenograft, tumor weight T/C	117 % of control
NC(=O)Oc1cccc(OC(N)=O)c1	nude mice, HT29 intrarenal xenograft, tumor weight T/C	62 % of control
O=C1NC(O)c2ccccc2O1 (stereo not drawn)	nude mice, HT29 intrarenal xenograft, tumor weight T/C	50 % of control
Cc1ccc2nc(-c3ccc4nc(-c5ccc(N=Nc6ccc(-c7nc8ccc(-c9nc%10ccc(C)c(S(=O)(=O)O)c%10s9)cc8s7)cc6)cc5)sc4c3)sc2c1S(=O)(=O)O	nude mice, HT29 intrarenal xenograft, tumor weight T/C	109 % of control

* * *

Readings of T/C for the listed compounds
- System: nude mice, HT29 intrarenal xenograft, tumor weight T/C
- experimental.details: NCI In Vivo Anticancer Drug Screen. Data for tumor model HT29;CX-1 Human Adenocarcinoma (MER+) (intrarenal inoculation) in NU/NU Swiss (nude) mice
- test.context: endpoint: mean tumor weight change; dose: 150.0 mg/kg/injection; schedule: Q04DX004 (sc); vehicle: saline with Tween-80; higher = larger tumour
Inconclusive results are not listed.

compound	T/C
Nc1nc(N)c2c(Cl)c(CNc3ccc(Cl)c(Cl)c3)ccc2n1	113 % of control
CCOC(=O)Nc1cc2c(c(N)n1)N=C(c1ccc(Cl)cc1Cl)CN2	78 % of control
CCN(CC)Cc1cc2[nH]c3c4ccc(Cl)cc4ncc3c2cc1OC	161 % of control
C[C@]12CC[C@H](O)CC1=CC[C@@H]1[C@@H]2CC[C@]2(C)C(=O)CC[C@@H]12	180 % of control
CCOC(=O)c1[nH]c2cccc3c2c1CC(Br)C3=O (stereo not drawn)	81 % of control
CC(=O)N(C)O	88 % of control
CCN(CC)CCNc1ccc(C)c2sc3ccc(O)cc3c(=O)c12	74 % of control
CN1C(=O)C(=Cc2ccc(O)cc2)C(=O)N(C)C1=O	116 % of control

* * *

- Test system: nude mice, HT29 intrarenal xenograft, tumor weight T/C
- experimental.details: NCI In Vivo Anticancer Drug Screen. Data for tumor model HT29;CX-1 Human Adenocarcinoma (MER+) (intrarenal inoculation) in NU/NU Swiss (nude) mice
- test.context: endpoint: mean tumor weight change; dose: 2.0 mg/kg/injection; schedule: Q01DX010 (sc); vehicle: saline; higher = larger tumour
Inconclusive results are not listed.
Readings of T/C for the listed molecules

molecule	T/C
NC(=O)c1cn(C2OC(CO)C(O)C2O)c2ncnc(N)c12 (centres undefined)	94 % of control
COc1cc([C@@H]2c3cc4c(c(O)c3C[C@H]3COC(=O)[C@@H]32)OCO4)cc(OC)c1O	75 % of control
S=P(N1CC1)(N1CC1)N1CC1	80 % of control
Nc1nc([Se])c2ncn(C3OC(CO)C(O)C3O)c2n1 (centres undefined)	98 % of control

The measurements presented in this section are drawn from PubChem BioAssay AID206.
